Reference for the values: ChEMBL document CHEMBL1128439

target: UniProtKB P18901
Sequence (P18901 whole entry): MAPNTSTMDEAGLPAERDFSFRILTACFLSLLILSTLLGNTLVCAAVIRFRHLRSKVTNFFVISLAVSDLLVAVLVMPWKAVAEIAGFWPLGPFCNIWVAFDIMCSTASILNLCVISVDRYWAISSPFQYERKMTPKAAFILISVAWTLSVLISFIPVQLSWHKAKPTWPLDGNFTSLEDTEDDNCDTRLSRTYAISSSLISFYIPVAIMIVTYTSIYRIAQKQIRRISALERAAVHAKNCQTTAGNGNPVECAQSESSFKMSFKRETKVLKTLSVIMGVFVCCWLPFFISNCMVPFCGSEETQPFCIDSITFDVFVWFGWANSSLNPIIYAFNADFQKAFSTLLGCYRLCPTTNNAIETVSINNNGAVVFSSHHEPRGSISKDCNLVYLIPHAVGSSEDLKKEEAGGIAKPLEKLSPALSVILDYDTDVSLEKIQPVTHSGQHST
pIC50: −log10 of the molar value.
Class 1: pIC50 at least 6. Class -1: pIC50 below 6.

Please tell me: is the molecule Oc1ccc2c(c1)[C@H]1c3ccccc3CN[C@@H]1CC2 at or over 6 in terms of pIC50?
1

Please tell me: is the molecule Oc1cccc2c1CC[C@H]1NCc3ccccc3[C@@H]21 at or over 6 in terms of pIC50?
-1

Please tell me: is the molecule CCCN1Cc2ccccc2[C@@H]2c3cc(O)ccc3CC[C@H]21 at or over 6 in terms of pIC50?
1

Please tell me: is the molecule CN1Cc2ccccc2[C@@H]2c3cc(O)ccc3CC[C@H]21 at or over 6 in terms of pIC50?
1

Please tell me: is the molecule Oc1ccc2c(c1)[C@@H]1c3ccccc3CN[C@@H]1CC2 at or over 6 in terms of pIC50?
-1

Please tell me: is the molecule CN1Cc2ccccc2[C@@H]2c3cc(O)c(Br)cc3CC[C@H]21 at or over 6 in terms of pIC50?
1

Please tell me: is the molecule Oc1cccc2c1CC[C@H]1NCc3ccccc3[C@H]21 at or over 6 in terms of pIC50?
-1
